Item-by-item account of self-cleavage
B1: Osa-1-4 twister ribozyme (parent)
chain: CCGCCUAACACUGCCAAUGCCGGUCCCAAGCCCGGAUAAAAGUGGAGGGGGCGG

Variants of: B1
Assay Protocol: self-cleavage, relative activity (ratio to wild type); higher = more cleavage; co-transcriptional
Returns: the value as a bare number; no unit string appended.

A selection of reference data follows.
Would you mind telling me what self-cleavage value was observed for CCGCCUAACAGUGCCAAUGCCGGUCCCCAGCCCGGAUAAAAGUGGAGGGGGCGG ?
0.21

// query self-cleavage value for entry CCGCCUAACACUGCCAAUGCCGGUCCCAAGCCCAUAUAAAAGUGGAGGGGGCGG
0.8

# self-cleavage lookup, item CCGCCUAACACUGCCAAUGCCGGUCCCAAGCCCGGAUAAAAGCGGGGGGGGCGG
0.04

Using the record for CCGCCUAACACUGCCAAUGCCGGUCCCAAGCCCGGAUAAAAGUAGAGGCGGCGG , report its self-cleavage.
0.06

I have this variant here, CCGCCUUACACUGCCAAUGCCGGUCCCAAGCCCGGAUAAAACUGGAGGGGGCGG , and I need its recorded self-cleavage.
0.05

New cases:
Reported self-cleavage for CCGCCUAACACUGCCAAUGCCGGUCCCAAGCCCGGAUAAAAGUGGAGGGGUCGC : what is it?
0.51

// returns reported self-cleavage for input CCGCCUAACACUGCCAAUGCCGGUCCGAAGCCCGGAUAAAAGUGGAGGGGGCGC
0.04

Any idea what self-cleavage was measured for CCGCCUAACACUGCCAAUGCCGGUCCCAAGCCCGAUUAAAAGUGGAGGGGGCGG ?
0.92

For the variant shown here, CCGCCUAACAUUGCCAAUGCCGGUCCCAAGCCGGGAUAAAAGUGGAGGGGGCGG , give the reported self-cleavage.
0.06
